Reported EC50 is given for each of the following molecules.
# Target system: pDNA-PK ser2056 induction in FaDU spheroids (Homo sapiens)
# Construct: host or cells: FaDu
# Test method notes: Multicellular tumour spheroid + radiation, pDNA-PK inhibition, FaDU
# Type: cell-based
# Test context: Example 8; spheroid; 20 Gy; read-out: Cell line: FaDU Immunohistochemical endpoint pDNA-PK inhibition EC50

Use the examples below as a reference point.
{"Molecule": "FC(F)(F)c1cnc(N[C@H]2CC[C@@H](Oc3nc(N4CCOCC4)cc4ncccc34)CC2)nc1 [Compound 34]", "EC50": "1000 to 10000 nM"}
{"Molecule": "CS(=O)(=O)Nc1cnc2cc(N3CCOCC3)nc(O[C@H]3CC[C@@H](n4ccnc4)CC3)c2c1 [Compound 161]", "EC50": "1000 to 10000 nM"}
{"Molecule": "Cc1cnc(N[C@H]2CC[C@@H](Oc3nc(N4CCOCC4)cc4ncccc34)CC2)nc1 [Compound 32]", "EC50": "500 to 1000 nM"}
{"Molecule": "CCOCCOc1cnc(N[C@H]2CC[C@@H](Oc3nc(N4CCOCC4)cc4ncc(O)cc34)CC2)nc1 [Compound 19b]", "EC50": "500 to 1000 nM"}
{"Molecule": "c1cnc(N[C@H]2CC[C@@H](Oc3nc(N4CCOCC4)cc4ncccc34)CC2)nc1 [Compound 20a]", "EC50": "500 to 1000 nM"}
{"Molecule": "Fc1cn([C@H]2CC[C@@H](Oc3nc(N4CCOCC4)cc4ncccc34)CC2)cn1 [Compound 17a]", "EC50": "500 to 1000 nM"}
{"Molecule": "Oc1cnc2cc(N3CCOCC3)nc(O[C@H]3CC[C@@H](Nc4ncccn4)CC3)c2c1 [Compound 19a]", "EC50": "500 to 1000 nM"}

Turning now to a further record.
## Input Look at this molecule and give its reported EC50. O=C(N[C@H]1CC[C@@H](Oc2nc(N3CCOCC3)cc3ncccc23)CC1)c1cncnc1 [Compound 122]
## Output 500 to 1000 nM
